src = patent US8324406B2

System: A549
Assay: cells
Format: cell-based
Conditions: Homo sapiens, A549, 48 h, read-out: LC50
# maps each entry to its CC50

Compound	CC50
COC1=CC[C@@H]([C@@H](C)/C=C(C)/C=C/C=C/C(=O)N[C@H](C(=O)N/C=C\C[C@H](C/C=C(\C)Cl)OC(N)=O)C(C)(C)C)OC1=O	> 0.165 µM
COC1=CC[C@@H]([C@@H](C)/C=C(C)/C=C\C=C/C(=O)N[C@H](C(=O)N/C=C\C[C@@H](C/C=C(\C)Cl)OC(N)=O)C(C)(C)C)OC1=O [Compound (21S)-1]	> 1.65 µM
C/C=C\C[C@@H](C/C=C\NC(=O)[C@@H](NC(=O)\C=C/C=C\C(C)=C\[C@H](C)[C@@H]1CC=C(OC)C(=O)O1)C(C)(C)C)OC(N)=O	> 1.64 µM
COC1=CC[C@@H]([C@@H](C)/C=C(C)/C=C\C=C\C(=O)N[C@H](C(=O)N/C=C\C[C@H](C/C=C(\C)Cl)OC(N)=O)C(C)(C)C)OC1=O	> 1.65 µM
COC1=CC[C@@H]([C@@H](C)/C=C(C)/C=C\C=C/C(=O)N[C@H](C(=O)N/C=C\C[C@H](C/C=C(\C)Cl)OC(N)=O)C(C)(C)C)OC1=O	> 0.165 µM
COC1=CCC(C(C)/C=C(C)/C=C/C=C\C(=O)NC(C(=O)N/C=C\CC(C/C=C(\C)Cl)OC(N)=O)C(C)(C)C)OC1=O (stereo not drawn)	≥ 16.5 µM

----------
# maps each entry to its CC50
Tested on: HT29
Assay: cells
Assay type: cell-based
Conditions: Homo sapiens, HT-29; HT29, 48 hours exposure, SRB; 50% net cell killing (cytotoxic effect); read-out: LC50 (the source's name)
Measured Attribute: CC50

>>> print(df.to_string())
                                   compound  value_observed
0  COC1=CC[C@@H]([C@@H](C)/C=C(C)/C=C\C=C/C(=O)N[C@@H](C(N)=O)C(C)(C)C)OC1=O [(15R)-7]         1310 nM
1  COC1=CC[C@@H]([C@@H](C)/C=C(C)/C=C\C=C/C(=O)N[C@H](C(=O)N/C=C\C[C@@H](C/C=C(\C)Cl)OC(N)=O)C(C)C)OC1=O [(21S)-5]         3.88 nM
2  COC1=CC[C@@H]([C@@H](C)/C=C(C)/C=C\C=C/C(=O)N[C@H](C(=O)N/C=C\C[C@@H](O)C/C=C(\C)Cl)C(C)(C)C)OC1=O [Compound 30a]         10.1 nM

----------
System: HT29
Experiment: cells
Type: cell-based
Settings: Homo sapiens, HT-29, 48 h, read-out: LC50

Compound	Comparison Operator	CC50 [nM]
COC1=CC[C@@H]([C@@H](C)/C=C(C)/C=C\C=C/C(=O)N[C@H](C(=O)N/C=C\C[C@@H](C/C=C(\C)Cl)OC(N)=O)C(C)(C)C)OC1=O [Compound (21S)-1]	=	23.1
COC1=CC[C@@H]([C@@H](C)/C=C(C)/C=C/C=C/C(=O)N[C@H](C(=O)N/C=C\C[C@H](C/C=C(\C)Cl)OC(N)=O)C(C)(C)C)OC1=O	>	165
COC1=CC[C@@H]([C@@H](C)/C=C(C)/C=C\C=C/C(=O)N[C@H](C(=O)N/C=C\C[C@H](C/C=C(\C)Cl)OC(N)=O)C(C)(C)C)OC1=O	=	0.99
COC1=CC[C@@H]([C@@H](C)/C=C(C)/C=C\C=C\C(=O)N[C@H](C(=O)N/C=C\C[C@H](C/C=C(\C)Cl)OC(N)=O)C(C)(C)C)OC1=O	=	6.27
C/C=C\C[C@@H](C/C=C\NC(=O)[C@@H](NC(=O)\C=C/C=C\C(C)=C\[C@H](C)[C@@H]1CC=C(OC)C(=O)O1)C(C)(C)C)OC(N)=O	=	1.12
COC1=CCC(C(C)/C=C(C)/C=C/C=C\C(=O)NC(C(=O)N/C=C\CC(C/C=C(\C)Cl)OC(N)=O)C(C)(C)C)OC1=O (stereo not drawn)	=	17.2

----------
System: HT29
Assay: cells
Type: cell-based
Details: Homo sapiens, HT-29; HT29, 48 hours exposure, SRB; concentration that produces 50% growth inhibition; read-out: GI50
GI50 under 300 nM gets met, anything at or over 300 nM gets not met.

Compound	Discrete Label
C/C=C\C[C@H](O)C/C=C\NC(=O)[C@@H](NC(=O)\C=C/C=C\C(C)=C\[C@H](C)[C@@H]1CC=C(OC)C(=O)O1)C(C)(C)C [Compound 30b]	met
COC1=CC[C@@H]([C@@H](C)/C=C(C)/C=C\C=C\C(=O)N[C@H](C(=O)N/C=C\C[C@H](C/C=C(\C)Cl)O[Si](C)(C)C(C)(C)C)C(C)(C)C)OC1=O [Compound 29e]	not met
C/C(Cl)=C\C[C@H](O)C/C=C\NC(=O)[C@@H](NC(=O)\C=C/C=C\C(C)=C\[C@H](C)[C@@H]1CC=CC(=O)O1)C(C)(C)C [Compound 30f]	not met
COC1=CC[C@@H]([C@@H](C)/C=C(C)/C=C/C=C/C(=O)N[C@H](C(=O)N/C=C\C[C@@H](O)C/C=C(\C)Cl)C(C)(C)C)OC1=O	met
COC1=CC[C@@H]([C@@H](C)/C=C(C)/C=C\C=C/C(=O)N[C@H](C(N)=O)C(C)(C)C)OC1=O	not met
COC1=CC[C@@H]([C@@H](C)/C=C(C)/C=C/C=C/C(=O)N[C@H](C(=O)N/C=C\C[C@H](C/C=C(\C)Cl)O[Si](C)(C)C(C)(C)C)C(C)(C)C)OC1=O	not met
COC1=CC[C@@H]([C@@H](C)/C=C(C)/C=C\C=C/C(=O)N[C@@H](C(N)=O)C(C)(C)C)OC1=O [(15R)-7]	not met
C/C=C\C[C@@H](C/C=C\NC(=O)[C@@H](NC(=O)\C=C/C=C\C(C)=C\[C@H](C)[C@@H]1CC=C(OC)C(=O)O1)C(C)(C)C)OC(N)=O	met

----------
Tested on: MDA-MB-231
Assay: cells
Format: cell-based
Conditions: Homo sapiens, MDA-MB-231, 48 h, read-out: LC50

Molecule	CC50 [µM]
COC1=CC[C@@H]([C@@H](C)/C=C(C)/C=C\C=C\C(=O)N[C@H](C(=O)N/C=C\C[C@H](C/C=C(\C)Cl)OC(N)=O)C(C)(C)C)OC1=O	0.0412
COC1=CC[C@@H]([C@@H](C)/C=C(C)/C=C/C=C/C(=O)N[C@H](C(=O)N/C=C\C[C@H](C/C=C(\C)Cl)OC(N)=O)C(C)(C)C)OC1=O	0.00957
C/C=C\C[C@@H](C/C=C\NC(=O)[C@@H](NC(=O)\C=C/C=C\C(C)=C\[C@H](C)[C@@H]1CC=C(OC)C(=O)O1)C(C)(C)C)OC(N)=O	0.00823
COC1=CC[C@@H]([C@@H](C)/C=C(C)/C=C\C=C/C(=O)N[C@H](C(=O)N/C=C\C[C@H](C/C=C(\C)Cl)OC(N)=O)C(C)(C)C)OC1=O	0.0028
COC1=CC[C@@H]([C@@H](C)/C=C(C)/C=C\C=C/C(=O)N[C@H](C(=O)N/C=C\C[C@@H](C/C=C(\C)Cl)OC(N)=O)C(C)(C)C)OC1=O [Compound (21S)-1]	0.0346
COC1=CCC(C(C)/C=C(C)/C=C/C=C\C(=O)NC(C(=O)N/C=C\CC(C/C=C(\C)Cl)OC(N)=O)C(C)(C)C)OC1=O (stereo not drawn)	0.072

----------
System: MDA-MB-231
Assay: cells
Format: cell-based
Details: Homo sapiens; MDA-MB-231, 48 hours exposure, SRB; concentration that produces 50% growth inhibition; read-out: GI50
# maps each entry to its GI50

Compound	GI50 (nM)
COC1=CC[C@@H]([C@@H](C)/C=C(C)/C=C\C=C/C(=O)N[C@@H](Cc2ccccc2)C(=O)N/C=C\C[C@H](C/C=C(\C)Cl)O[Si](C)(C)C(C)(C)C)OC1=O [Compound 29d]	1100
C/C(Cl)=C\C[C@H](O)C/C=C\NC(=O)[C@@H](NC(=O)\C=C/C=C\C(C)=C\[C@H](C)[C@@H]1CC=CC(=O)O1)C(C)(C)C [Compound 30f]	694
COC1=CC[C@@H]([C@@H](C)/C=C(C)/C=C\C=C/C(=O)N[C@@H](C(N)=O)C(C)(C)C)OC1=O [(15R)-7]	766
C/C=C\C[C@H](O)C/C=C\NC(=O)[C@@H](NC(=O)\C=C/C=C\C(C)=C\[C@H](C)[C@@H]1CC=C(OC)C(=O)O1)C(C)(C)C [Compound 30b]	20.8
COC1=CC[C@@H]([C@@H](C)/C=C(C)/C=C\C=C/C(=O)N[C@H](C(=O)N/C=C\C[C@H](C/C=C(\C)Cl)OC(N)=O)C(C)C)OC1=O	0.103
COC1=CC[C@@H]([C@@H](C)/C=C(C)/C=C\C=C/C(=O)N[C@H](C(=O)N/C=C\C[C@H](O)C/C=C(\C)Cl)C(C)(C)C)OC1=O [(21S)-30a]	2.49
